system: RAW-Dual (murine macrophage reporter line); experiment: IRF reporter (Lucia luciferase) activity fold change vs agonist alone; higher = enhanced IRF activity; settings: modulator concentration 10 µM; agonist: LPS 0.1 ug/mL
# IRF reporter listing for each entry below
Just the number.

Take a look at these entries with their results.
compound: N[C@@H](CC(=O)N1CCn2c(nnc2C(F)(F)F)C1)Cc1cc(F)c(F)cc1F
IRF reporter: 1.05
//
compound: CC(C)CNC(=O)C(=O)Nc1ccc(C(C)C)cc1
IRF reporter: 0.959
//
compound: CC(=O)Nc1ccc(S(=O)(=O)N2CCCc3ccccc32)cc1
IRF reporter: 1.27

Query block: Which IRF reporter reading was recorded for the compound `O=C1Nc2ccc(Cl)cc2[C@@](C#CC2CC2)(C(F)(F)F)O1` ?
Result block: 0.715

Query block: Reported IRF reporter, compound `CCCCc1nc2cc(/C=C/C(=O)NO)ccc2n1CCN(CC)CC` : ____
Result block: 0.266

Query block: Returns the measured IRF reporter for the input compound. Input: `CS(=O)(=O)O.O=C(NC1CCN(CCCCC2(C(=O)NCC(F)(F)F)c3ccccc3-c3ccccc32)CC1)c1ccccc1-c1ccc(C(F)(F)F)cc1`
Result block: 0.0322
